# experimental target: PRKD3 (human) (UniProt O94806)
# Sequence (O94806 whole entry, looked up): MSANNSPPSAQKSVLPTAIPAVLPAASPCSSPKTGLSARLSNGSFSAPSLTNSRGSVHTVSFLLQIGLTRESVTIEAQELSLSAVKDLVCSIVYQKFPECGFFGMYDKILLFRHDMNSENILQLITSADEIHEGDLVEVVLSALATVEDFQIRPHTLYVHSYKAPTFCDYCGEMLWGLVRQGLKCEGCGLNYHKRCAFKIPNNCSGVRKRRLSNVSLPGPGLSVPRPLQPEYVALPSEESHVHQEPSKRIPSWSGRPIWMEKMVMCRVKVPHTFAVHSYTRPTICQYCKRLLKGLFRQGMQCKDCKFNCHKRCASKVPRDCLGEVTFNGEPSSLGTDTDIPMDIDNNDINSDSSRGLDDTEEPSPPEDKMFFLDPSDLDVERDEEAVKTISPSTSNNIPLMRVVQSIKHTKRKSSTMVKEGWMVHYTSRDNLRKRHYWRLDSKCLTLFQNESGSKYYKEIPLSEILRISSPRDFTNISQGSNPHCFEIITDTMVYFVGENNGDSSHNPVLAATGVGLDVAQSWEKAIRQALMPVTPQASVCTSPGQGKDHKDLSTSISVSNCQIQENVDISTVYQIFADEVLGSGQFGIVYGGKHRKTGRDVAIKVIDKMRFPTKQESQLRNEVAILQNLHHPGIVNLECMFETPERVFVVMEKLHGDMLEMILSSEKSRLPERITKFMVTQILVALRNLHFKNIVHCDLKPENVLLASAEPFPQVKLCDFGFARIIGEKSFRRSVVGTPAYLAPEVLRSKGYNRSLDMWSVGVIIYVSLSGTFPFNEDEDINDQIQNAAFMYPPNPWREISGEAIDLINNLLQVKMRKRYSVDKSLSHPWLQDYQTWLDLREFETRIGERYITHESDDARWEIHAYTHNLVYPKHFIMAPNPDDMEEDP
# assay notes: KINOMEscan competition binding
# study conditions: compound 10.0 µM
property measured: kinase still bound, per cent of control (%)

INSERT INTO measurements (smiles_representation, recorded_measurement) VALUES
  ('O=C1Nc2cc(Br)ccc2/C1=C1/Nc2ccccc2/C1=N\O', 70),
  ('Cn1cc(C2=C(c3ccc(Cl)cc3Cl)C(=O)NC2=O)c2ccccc21', 78),
  ('COc1ccc(CNC(=O)Nc2ncc([N+](=O)[O-])s2)cc1', 100),
  ('Cc1cnc(-c2cnc(NCCNc3ccc(C#N)cn3)nc2-c2ccc(Cl)cc2Cl)[nH]1', 88);

* * *

# experimental target: MAP3K10 (human) (UniProt Q02779)
# Sequence (Q02779 whole entry, looked up): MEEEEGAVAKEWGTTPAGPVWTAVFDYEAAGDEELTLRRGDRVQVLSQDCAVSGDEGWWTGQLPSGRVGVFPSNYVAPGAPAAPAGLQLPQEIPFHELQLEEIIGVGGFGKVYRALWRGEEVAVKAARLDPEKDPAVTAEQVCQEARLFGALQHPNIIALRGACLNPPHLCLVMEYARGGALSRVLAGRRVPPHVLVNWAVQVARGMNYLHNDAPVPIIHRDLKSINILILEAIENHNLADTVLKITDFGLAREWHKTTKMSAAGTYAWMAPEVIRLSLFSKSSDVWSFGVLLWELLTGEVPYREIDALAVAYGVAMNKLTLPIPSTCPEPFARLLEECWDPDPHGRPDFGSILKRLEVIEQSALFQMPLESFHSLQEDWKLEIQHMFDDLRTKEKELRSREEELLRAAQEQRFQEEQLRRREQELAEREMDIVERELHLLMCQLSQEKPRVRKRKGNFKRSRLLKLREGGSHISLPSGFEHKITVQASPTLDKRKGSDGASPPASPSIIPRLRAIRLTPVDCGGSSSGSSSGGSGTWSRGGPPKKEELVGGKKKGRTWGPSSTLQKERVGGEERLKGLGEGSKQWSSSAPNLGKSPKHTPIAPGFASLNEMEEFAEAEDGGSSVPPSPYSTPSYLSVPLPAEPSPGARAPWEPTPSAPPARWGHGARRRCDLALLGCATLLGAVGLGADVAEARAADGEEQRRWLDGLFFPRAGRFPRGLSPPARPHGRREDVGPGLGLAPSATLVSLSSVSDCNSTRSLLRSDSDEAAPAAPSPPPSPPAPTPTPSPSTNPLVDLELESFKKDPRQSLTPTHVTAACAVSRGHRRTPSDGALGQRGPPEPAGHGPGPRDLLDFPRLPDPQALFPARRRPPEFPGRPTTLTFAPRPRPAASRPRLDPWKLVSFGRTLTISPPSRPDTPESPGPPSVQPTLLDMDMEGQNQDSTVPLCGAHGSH
# assay notes: KINOMEscan competition binding
# study conditions: compound 10.0 µM
property measured: kinase still bound, per cent of control (%)

INSERT INTO results (smiles_representation, recorded_measurement) VALUES
  ('Cn1cc(C2=C(c3ccc(Cl)cc3Cl)C(=O)NC2=O)c2ccccc21', 100),
  ('COc1ccc(CNC(=O)Nc2ncc([N+](=O)[O-])s2)cc1', 87),
  ('O=C1Nc2cc(Br)ccc2/C1=C1/Nc2ccccc2/C1=N\O', 100),
  ('Cc1cnc(-c2cnc(NCCNc3ccc(C#N)cn3)nc2-c2ccc(Cl)cc2Cl)[nH]1', 76);

* * *

# Tested on: ABL1 (human), P00519 [M351T]
# assay notes: KINOMEscan competition binding
# study conditions: compound 10.0 µM
property measured: kinase still bound, per cent of control (%)

INSERT INTO results (smiles_representation, property_measured, recorded_measurement) VALUES
  ('Cn1cc(C2=C(c3ccc(Cl)cc3Cl)C(=O)NC2=O)c2ccccc21', 'kinase still bound, per cent of control', 82);

(I) O=C1Nc2cc(Br)ccc2/C1=C1/Nc2ccccc2/C1=N\O
(II) COc1ccc(CNC(=O)Nc2ncc([N+](=O)[O-])s2)cc1
(III) Cc1cnc(-c2cnc(NCCNc3ccc(C#N)cn3)nc2-c2ccc(Cl)cc2Cl)[nH]1
Problem: Put these in order: smallest kinase still bound, per cent of control first, largest last. Please list the labels according to the requested order.
Result: I, II, III
(I: 2.2%, II: 63%, III: 99%)

* * *

# experimental target: UniProtKB Q8IYT8
# assay notes: KINOMEscan competition binding
# study conditions: compound 10.0 µM
property measured: kinase still bound, per cent of control (%)

For orientation, consider the following solved cases.
INSERT INTO measurements (smiles_representation, recorded_measurement) VALUES
  ('Cc1cnc(-c2cnc(NCCNc3ccc(C#N)cn3)nc2-c2ccc(Cl)cc2Cl)[nH]1', 96),
  ('Cn1cc(C2=C(c3ccc(Cl)cc3Cl)C(=O)NC2=O)c2ccccc21', 96);

(a) COc1ccc(CNC(=O)Nc2ncc([N+](=O)[O-])s2)cc1
(b) O=C1Nc2cc(Br)ccc2/C1=C1/Nc2ccccc2/C1=N\O
Problem: Could you kindly indicate whether a or b has the higher kinase still bound, per cent of control value? Please respond with the label that marks your chosen entry.
Result: a

* * *

# experimental target: CSF1R (human) (UniProt P07333)
# assay notes: KINOMEscan competition binding
# study conditions: compound 10.0 µM
property measured: kinase still bound, per cent of control (%)

Before answering, review these 2 worked examples.
INSERT INTO measurements (smiles_representation, quantity_unit, recorded_measurement) VALUES
  ('COc1ccc(CNC(=O)Nc2ncc([N+](=O)[O-])s2)cc1', '%', 97),
  ('Cn1cc(C2=C(c3ccc(Cl)cc3Cl)C(=O)NC2=O)c2ccccc21', '%', 87);

(P) Cc1cnc(-c2cnc(NCCNc3ccc(C#N)cn3)nc2-c2ccc(Cl)cc2Cl)[nH]1
(Q) O=C1Nc2cc(Br)ccc2/C1=C1/Nc2ccccc2/C1=N\O
Problem: Parameter metric = kinase still bound, per cent of control. Return the lower-valued option from P and Q . In your reply, give the label of the chosen option.
Result: Q
(Q: 1.2%, P: 90%)

* * *

# experimental target: NTRK3 (human) (UniProt Q16288)
# Sequence (Q16288 whole entry, looked up): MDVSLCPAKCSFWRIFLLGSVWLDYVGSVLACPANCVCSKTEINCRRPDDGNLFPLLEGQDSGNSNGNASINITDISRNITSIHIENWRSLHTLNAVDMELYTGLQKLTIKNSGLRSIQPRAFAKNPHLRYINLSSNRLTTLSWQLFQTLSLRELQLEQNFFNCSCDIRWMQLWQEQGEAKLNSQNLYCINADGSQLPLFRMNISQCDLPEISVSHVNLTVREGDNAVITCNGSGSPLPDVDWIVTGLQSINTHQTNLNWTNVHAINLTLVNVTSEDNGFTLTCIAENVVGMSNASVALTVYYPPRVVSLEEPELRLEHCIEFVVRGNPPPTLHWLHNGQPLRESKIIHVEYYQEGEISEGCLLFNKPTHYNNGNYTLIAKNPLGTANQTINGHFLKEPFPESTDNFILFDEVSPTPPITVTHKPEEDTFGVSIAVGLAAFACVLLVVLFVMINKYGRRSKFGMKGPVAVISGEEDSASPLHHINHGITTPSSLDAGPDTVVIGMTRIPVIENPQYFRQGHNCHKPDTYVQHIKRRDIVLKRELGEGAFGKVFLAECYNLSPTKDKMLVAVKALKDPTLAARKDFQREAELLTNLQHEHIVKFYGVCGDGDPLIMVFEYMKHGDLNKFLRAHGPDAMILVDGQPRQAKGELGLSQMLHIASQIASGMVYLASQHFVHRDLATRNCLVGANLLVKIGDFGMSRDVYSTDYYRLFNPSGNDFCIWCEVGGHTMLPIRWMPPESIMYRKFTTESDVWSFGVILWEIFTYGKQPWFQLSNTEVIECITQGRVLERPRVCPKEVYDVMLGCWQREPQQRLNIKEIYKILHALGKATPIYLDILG
# assay notes: KINOMEscan competition binding
# study conditions: compound 10.0 µM
property measured: kinase still bound, per cent of control (%)

The following compounds have reported results that may help.
INSERT INTO measurements (smiles_representation, recorded_measurement) VALUES
  ('Cc1cnc(-c2cnc(NCCNc3ccc(C#N)cn3)nc2-c2ccc(Cl)cc2Cl)[nH]1', 100),
  ('Cn1cc(C2=C(c3ccc(Cl)cc3Cl)C(=O)NC2=O)c2ccccc21', 62);

(a) COc1ccc(CNC(=O)Nc2ncc([N+](=O)[O-])s2)cc1
(b) O=C1Nc2cc(Br)ccc2/C1=C1/Nc2ccccc2/C1=N\O
Problem: # returns the entry with the larger kinase still bound, per cent of control; inputs a and b Returns: label corresponding to the selected item.
Result: a
(a: 85%, b: 16%)

* * *

# experimental target: CDK17 (human) (UniProt Q00537)
# Sequence (Q00537 whole entry, looked up): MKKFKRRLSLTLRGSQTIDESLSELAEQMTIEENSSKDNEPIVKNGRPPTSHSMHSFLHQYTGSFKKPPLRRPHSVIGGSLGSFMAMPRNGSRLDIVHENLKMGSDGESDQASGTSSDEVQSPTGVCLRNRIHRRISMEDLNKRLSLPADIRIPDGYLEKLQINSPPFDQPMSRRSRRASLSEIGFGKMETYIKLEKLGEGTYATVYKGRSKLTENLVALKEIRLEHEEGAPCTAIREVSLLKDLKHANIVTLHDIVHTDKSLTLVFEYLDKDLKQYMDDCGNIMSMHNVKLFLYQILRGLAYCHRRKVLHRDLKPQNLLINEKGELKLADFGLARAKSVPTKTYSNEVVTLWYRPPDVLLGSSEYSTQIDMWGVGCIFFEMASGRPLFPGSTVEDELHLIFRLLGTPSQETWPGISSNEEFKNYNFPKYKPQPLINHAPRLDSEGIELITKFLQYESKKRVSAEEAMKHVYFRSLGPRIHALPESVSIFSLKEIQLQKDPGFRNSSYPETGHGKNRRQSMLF
# assay notes: KINOMEscan competition binding
# study conditions: compound 10.0 µM
property measured: kinase still bound, per cent of control (%)

Observe how each entry below is paired with its result.
INSERT INTO assay_data (smiles_representation, experimental_target, recorded_measurement) VALUES
  ('Cn1cc(C2=C(c3ccc(Cl)cc3Cl)C(=O)NC2=O)c2ccccc21', 'CDK17 (human) (UniProt Q00537)', 12),
  ('Cc1cnc(-c2cnc(NCCNc3ccc(C#N)cn3)nc2-c2ccc(Cl)cc2Cl)[nH]1', 'CDK17 (human) (UniProt Q00537)', 100);

(P) COc1ccc(CNC(=O)Nc2ncc([N+](=O)[O-])s2)cc1
(Q) O=C1Nc2cc(Br)ccc2/C1=C1/Nc2ccccc2/C1=N\O
Problem: Between the entries labeled P and Q , whose measured kinase still bound, per cent of control is lower? // return label of chosen record
Result: Q
(Q: 12%, P: 79%)

* * *

# experimental target: UniProt Q13177
# Sequence (Q13177 whole entry, looked up): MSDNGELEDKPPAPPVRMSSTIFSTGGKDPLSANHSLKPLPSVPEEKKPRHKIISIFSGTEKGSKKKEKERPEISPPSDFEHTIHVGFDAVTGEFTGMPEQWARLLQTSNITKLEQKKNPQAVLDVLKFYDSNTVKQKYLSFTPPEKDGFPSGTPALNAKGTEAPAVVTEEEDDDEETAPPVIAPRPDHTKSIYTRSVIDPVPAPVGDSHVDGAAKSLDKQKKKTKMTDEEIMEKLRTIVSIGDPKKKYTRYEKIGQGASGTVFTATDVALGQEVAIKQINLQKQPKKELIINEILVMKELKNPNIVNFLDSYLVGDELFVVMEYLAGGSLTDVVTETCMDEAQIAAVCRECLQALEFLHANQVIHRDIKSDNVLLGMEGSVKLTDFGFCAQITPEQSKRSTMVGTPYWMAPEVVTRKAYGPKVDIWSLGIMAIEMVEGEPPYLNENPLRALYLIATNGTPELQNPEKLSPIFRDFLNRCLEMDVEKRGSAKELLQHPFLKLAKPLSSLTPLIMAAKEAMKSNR
# assay notes: KINOMEscan competition binding
# study conditions: compound 10.0 µM
property measured: kinase still bound, per cent of control (%)

INSERT INTO assay_data (smiles_representation, experimental_target, quantity_unit, recorded_measurement) VALUES
  ('Cc1cnc(-c2cnc(NCCNc3ccc(C#N)cn3)nc2-c2ccc(Cl)cc2Cl)[nH]1', 'UniProt Q13177', '%', 94);

(I) Cn1cc(C2=C(c3ccc(Cl)cc3Cl)C(=O)NC2=O)c2ccccc21
(II) O=C1Nc2cc(Br)ccc2/C1=C1/Nc2ccccc2/C1=N\O
Problem: Between these two entries, I and II , state which has the higher kinase still bound, per cent of control. Returns: label corresponding to the selected item.
Result: I
(I: 61%, II: 40%)

* * *

# experimental target: UniProtKB P06239
# Sequence (P06239 whole entry, looked up): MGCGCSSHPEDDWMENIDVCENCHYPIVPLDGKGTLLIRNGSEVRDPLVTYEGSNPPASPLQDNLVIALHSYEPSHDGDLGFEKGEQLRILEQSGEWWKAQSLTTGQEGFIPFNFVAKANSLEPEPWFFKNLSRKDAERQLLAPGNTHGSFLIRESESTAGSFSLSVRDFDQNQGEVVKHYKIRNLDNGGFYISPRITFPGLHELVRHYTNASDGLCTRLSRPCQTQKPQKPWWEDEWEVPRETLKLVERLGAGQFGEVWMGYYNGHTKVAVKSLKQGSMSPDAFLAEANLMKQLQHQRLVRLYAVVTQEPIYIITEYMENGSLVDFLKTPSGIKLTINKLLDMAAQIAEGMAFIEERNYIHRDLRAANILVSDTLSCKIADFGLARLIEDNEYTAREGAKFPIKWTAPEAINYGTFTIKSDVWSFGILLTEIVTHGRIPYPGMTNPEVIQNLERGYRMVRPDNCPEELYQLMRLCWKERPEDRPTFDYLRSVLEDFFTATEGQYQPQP
# assay notes: KINOMEscan competition binding
# study conditions: compound 10.0 µM
property measured: kinase still bound, per cent of control (%)

These solved cases illustrate the format of a correct answer.
INSERT INTO results (smiles_representation, property_measured, recorded_measurement) VALUES
  ('COc1ccc(CNC(=O)Nc2ncc([N+](=O)[O-])s2)cc1', 'kinase still bound, per cent of control', 100),
  ('Cn1cc(C2=C(c3ccc(Cl)cc3Cl)C(=O)NC2=O)c2ccccc21', 'kinase still bound, per cent of control', 96);

(P) Cc1cnc(-c2cnc(NCCNc3ccc(C#N)cn3)nc2-c2ccc(Cl)cc2Cl)[nH]1
(Q) O=C1Nc2cc(Br)ccc2/C1=C1/Nc2ccccc2/C1=N\O
Problem: Form: Entry with minimum kinase still bound, per cent of control (choose one): P / Q Indicate your choice by writing its label.
Result: Q

* * *

# experimental target: MAPKAPK2 (human)
# assay notes: KINOMEscan competition binding
# study conditions: compound 10.0 µM
property measured: kinase still bound, per cent of control (%)

INSERT INTO assay_data (smiles_representation, property_measured, recorded_measurement) VALUES
  ('Cc1cnc(-c2cnc(NCCNc3ccc(C#N)cn3)nc2-c2ccc(Cl)cc2Cl)[nH]1', 'kinase still bound, per cent of control', 100),
  ('O=C1Nc2cc(Br)ccc2/C1=C1/Nc2ccccc2/C1=N\O', 'kinase still bound, per cent of control', 100),
  ('Cn1cc(C2=C(c3ccc(Cl)cc3Cl)C(=O)NC2=O)c2ccccc21', 'kinase still bound, per cent of control', 100),
  ('COc1ccc(CNC(=O)Nc2ncc([N+](=O)[O-])s2)cc1', 'kinase still bound, per cent of control', 94);

* * *

# experimental target: STK32C (human) (UniProt Q86UX6)
# Sequence (Q86UX6 whole entry, looked up): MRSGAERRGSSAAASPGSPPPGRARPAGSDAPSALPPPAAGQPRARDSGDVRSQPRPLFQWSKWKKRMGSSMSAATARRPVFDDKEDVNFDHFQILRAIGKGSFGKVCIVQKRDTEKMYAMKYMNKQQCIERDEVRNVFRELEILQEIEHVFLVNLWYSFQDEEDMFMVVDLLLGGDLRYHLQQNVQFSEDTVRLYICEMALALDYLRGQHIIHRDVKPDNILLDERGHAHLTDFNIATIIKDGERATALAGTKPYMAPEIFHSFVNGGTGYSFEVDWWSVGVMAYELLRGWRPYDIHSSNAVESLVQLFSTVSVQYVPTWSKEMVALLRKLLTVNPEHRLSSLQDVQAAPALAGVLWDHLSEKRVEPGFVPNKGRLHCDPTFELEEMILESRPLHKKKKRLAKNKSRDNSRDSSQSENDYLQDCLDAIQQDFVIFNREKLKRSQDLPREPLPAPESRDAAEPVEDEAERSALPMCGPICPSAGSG
# assay notes: KINOMEscan competition binding
# study conditions: compound 10.0 µM
property measured: kinase still bound, per cent of control (%)

INSERT INTO results (smiles_representation, property_measured, quantity_unit, recorded_measurement) VALUES
  ('Cn1cc(C2=C(c3ccc(Cl)cc3Cl)C(=O)NC2=O)c2ccccc21', 'kinase still bound, per cent of control', '%', 94),
  ('COc1ccc(CNC(=O)Nc2ncc([N+](=O)[O-])s2)cc1', 'kinase still bound, per cent of control', '%', 76),
  ('Cc1cnc(-c2cnc(NCCNc3ccc(C#N)cn3)nc2-c2ccc(Cl)cc2Cl)[nH]1', 'kinase still bound, per cent of control', '%', 97),
  ('O=C1Nc2cc(Br)ccc2/C1=C1/Nc2ccccc2/C1=N\O', 'kinase still bound, per cent of control', '%', 100);

Origin of the recorded values: the kinase profiling compilation of Christmann-Franck et al. (2016)
